Attribute: IC50
- ASSAY SYSTEM: P70S6K (T412E mutant) (Homo sapiens (Human), UniProt P23443, T412E)
- Sequence (P23443 whole entry T412E): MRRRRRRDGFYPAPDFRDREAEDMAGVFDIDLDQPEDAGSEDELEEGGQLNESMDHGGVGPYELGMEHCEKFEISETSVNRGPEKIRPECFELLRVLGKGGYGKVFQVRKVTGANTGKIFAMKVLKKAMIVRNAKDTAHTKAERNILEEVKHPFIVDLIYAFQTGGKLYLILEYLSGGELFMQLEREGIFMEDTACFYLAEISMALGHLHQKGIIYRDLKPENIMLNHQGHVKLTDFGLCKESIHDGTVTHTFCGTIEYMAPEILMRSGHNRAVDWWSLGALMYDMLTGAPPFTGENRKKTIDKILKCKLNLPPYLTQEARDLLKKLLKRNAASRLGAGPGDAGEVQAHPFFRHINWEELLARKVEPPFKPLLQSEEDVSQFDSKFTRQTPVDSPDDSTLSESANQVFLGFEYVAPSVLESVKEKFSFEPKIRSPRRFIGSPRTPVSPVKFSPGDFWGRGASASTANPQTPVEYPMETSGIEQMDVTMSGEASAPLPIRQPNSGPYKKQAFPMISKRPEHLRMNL
- ASSAY TEXT: P70S6K enzyme assay
- Assay type: biochemical
- MEASUREMENT PARAMETERS: read-out: IC50 p70S6K

{"columns": ["SMILES STRING", "IC50 / nM"],
 "data": [
  ["Cc1ccc(-c2cn(CCN3CCC3)c(C3CCN(c4ncnc(N)c4C(N)=O)CC3)n2)cc1C(F)(F)F", 4],
  ["CCc1c(N)ncnc1N1CCC(c2nc(-c3cccc(F)c3)cn2CCN2CCCC2)CC1", 3.6],
  ["COc1ccc(-c2cn(CCN3CCC3)c(C3CCN(c4ncnc(N)c4C(N)=O)CC3)n2)cc1F", 100],
  ["Nc1ncnc(N2CCC(c3nc(-c4ccc(O)c(C(F)(F)F)c4)cn3CCN3CCCC3)CC2)c1Cl", 3.7],
  ["N#Cc1c(N)ncnc1N1CCC(c2nc(-c3ccnc(F)c3)cn2CCN2CCC2)CC1", 2.4],
  ["NC(=O)c1c(N)ncnc1N1CCC(c2nc(-c3ccc(F)c(C(F)(F)F)c3)cn2C2CCNCC2)CC1", 3],
  ["CN(C)CCn1cc(-c2ccc(F)c(C(F)(F)F)c2)nc1C1CCN(c2ncnc(N)c2C(N)=O)CC1", 3.5],
  ["CCc1c(N)ncnc1N1CCC(c2nc(-c3ccc(F)c(F)c3)cn2CCN2CCOCC2)CC1", 5.5],
  ["CNCCn1cc(-c2ccnc(C(F)(F)F)c2)nc1C1CCN(c2ncnc(N)c2Br)CC1", 1.3],
  ["Cc1cc(-c2cn(CCN(C)C(C)C)c(C3CCN(c4ncnc(N)c4C(N)=O)CC3)n2)ccc1F", 6.2],
  ["CCc1c(N)ncnc1N1CCC(c2nc(-c3ccc(F)c(C(F)(F)F)c3)cn2CCN(C)C)CC1", 3.7],
  ["Nc1ncnc(N2CCC(c3nc(-c4ccnc(C(F)(F)F)c4)cn3CCN3CCC3)CC2)c1-c1cnoc1", 2.9],
  ["Cn1cc(-c2ccc(F)c(C(F)(F)F)c2)nc1C1CCN(c2ncnc(N)c2-c2ccccc2C#N)CC1", 250],
  ["C=Cc1c(N)ncnc1N1CCC(c2nc(-c3ccnc(C(C)C)c3)cn2CCN2CCC2)CC1", 0.7],
  ["CCc1c(N)ncnc1N1CCC(c2nc(-c3ccc(F)c(C)c3)cn2CC2CN(C)C2)CC1", 0.06],
  ["N#Cc1c(N)ncnc1N1CCC(c2nc(-c3ccc(F)cc3)cn2CCN2CCCC2)CC1", 2.6],
  ["CCc1c(N)ncnc1N1CCC(c2nc(-c3ccc(F)c(C(F)(F)F)c3)cn2C2CCNCC2)CC1", 2],
  ["Cn1cc(-c2ccc(F)c(C(F)(F)F)c2)nc1C1CCN(c2ncnc(N)c2-c2ccc(Cl)nc2)CC1", 4.5],
  ["CCc1c(N)ncnc1N1CCC(c2nc(-c3ccc(F)cc3)cn2CCN2CC3(COC3)C2)CC1", 6.3],
  ["N#Cc1c(N)ncnc1N1CCC(c2nc(-c3cccc(F)c3)cn2CCN2CCCC2)CC1", 2.6],
  ["Cn1cc(-c2ccc(F)c(C(F)(F)F)c2)nc1C1CCN(c2ncnc(N)c2-c2ccc(F)cc2)CC1", 3.4]
]}
